Target: T1, 4H406-AA
T1 chain: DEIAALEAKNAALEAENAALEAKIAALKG
Assay: two-hybrid library CCmax;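 note: natural log of median RNA to DNA barcode read ratio; higher means stronger binding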
Details: mean of both orientations
Reported values of interaction score for individual entries
PROPERTY_LABEL: interaction score

DKIAALKAEIAALEAKNAALEAENAALEG [4H2611-AA]; -1.29
DEIAALEAKIAALKAENAALKAENAALEG [4H347-AA]; -1.21
DKIAALKAEIAALEAENAALKAKNAALKG [4H2592-AA]; -1.19
DENAALKAKIAALEAKIAALEAENAALKG [4H1828-AA]; -1.44
DENAALKAKIAALEAENAALKAKIAALEG [4H1821-AA]; -1.34
DKIAALEAKNAALEAKIAALEAEIAALKG [4H2466-AA]; -1.25
DKIAALKAKNAALKAEIAALEAKNAALEG [4H3015-AA]; -0.891
DKIAALEAKNAALKAEIAALEAKNAALKG [4H2504-AA]; 0.644
DKNAALEAEIAALEAEIAALEAEIAALEG [4H3073-AA]; -1.6
DEIAALEAENAALEAKIAALKAKNAALEG [4H175-AA]; -1.39
DKNAALEAKIAALEAEIAALKAENAALKG [4H3340-AA]; -1.43
DENAALKAEIAALKAEIAALKAKNAALEG [4H1615-AA]; -1.66
DENAALKAEIAALKAKIAALEAKNAALEG [4H1639-AA]; -1.63
DKNAALEAKIAALEAKNAALEAKIAALEG [4H3381-AA]; -1.15
